# Tested on: gene editing with Cas9
# METHOD: Screen of 322 new SSAP proteins, gene editing activity with Cas9 (Table 5)
# Assay type: cell-based
# EXPERIMENTAL SETUP: normalized
Record form. Attribute: Cas9 with SSAP activity (normalized). Fill in for each entry.

>  <MOLECULE>
SSAP_54: SEQ ID NO: 223; Bet Pseudomonas phage PS-1 (protein, listed as Pseudomonas sp.) SNVATIKPSSLSARMAERFGVDPNEMMATLKATAFKGQVSDAQMQALLIVADQYGLNPWTKEIYAFPDKGGIVPVVGVDGWSRIINENGAFDGMDFQQDDESCTCIIYRKDRNHPIKVTEWMAECKRNTQPWQSHPKRMLRHKAMIQCARLAFGYTGIFDEDEAQRIVEKDVTPAVNEPDITPALEAIKNASSMEELHAAFKAAWNQHPSARARLTAVKDERKKALSEPIEGELVENEDGPAQQ

>  <Cas9 with SSAP activity (normalized)>
−0.061

$$$$

The measured Cas9 with SSAP activity (normalized) associated with SSAP_281: SEQ ID NO: 450; Leucobacter luti (protein, listed as Leucobacter luti) SDLSQAAVAVKKSKTVEDYLTEYEPQFQRALGKSMDAAKFSQDALTAIKQTPQLGQADLQTLFGSLFLAAQLKLPVGGPLAQFHLTPRKRGDKLEVLPIIGFGGYVQLIMNTGLYSKVGAFLIYEKDYFDEGANSERGEFYDFKKSRGDRGPVVGVIAYVKLKGFDESQYVFLDADTIRSRHRPRYWEKTPWGSDEGEMFKKTGVRVLQKLLPKSVEAAPLALAADADQATVRKVDGIEDLTIQHDVVDAEVVPDGVPV reads −0.672
